assay_comment: Stability in liver microsomes
Assay type: in vitro ADME, human
condition_summary: 2 μM, 37° C., 24 h
Where a SMILES comes first, the peptide text is derived from it. [ ]: non-standard residue; d: D form. ξ: configuration not given here. ξαMeBip(2'-Et,4'-OMe) = CCc1cc(OC)ccc1-c1ccc(CC(C)(N)C(=O)O)cc1; ξαMePhe(2,6-F2) = CC(N)(Cc1c(F)cccc1F)C(=O)O; ξhhPhe = NC(CCCc1ccccc1)C(=O)O; ξαMeP = CC1(C(=O)O)CCCN1
reported_metric: % degradation in 24 h when incubated with liver microsomes
// unit must come after the numeric part

Read the entry CCc1cc(OC)ccc1-c1ccc(CC(C)(NC(=O)[C@H](CC(=O)O)NC(=O)[C@H](CO)NC(=O)[C@@H](NC(=O)C(C)(Cc2c(F)cccc2F)NC(=O)[C@@H](NC(=O)CNC(=O)[C@H](CCC(N)=O)NC(=O)C2(C)CCCN2C(=O)[C@H](Cc2c[nH]cn2)NC(=O)[C@@H](N)C(C)C)[C@@H](C)O)[C@@H](C)O)C(=O)NC(CCCc2ccccc2)C(N)=O)cc1 (stereo partly shown) [compound 28] (H-VH[ξαMeP]QGT[ξαMePhe(2,6-F2)]TSD[ξαMeBip(2'-Et,4'-OMe)][ξhhPhe]-NH2) and write its reported % degradation in 24 h when incubated with liver microsomes.
78%

----------
subject_of_test: DPP IV enzyme (Homo sapiens, UniProt P27487)
Sequence (P27487 whole entry, species assumed): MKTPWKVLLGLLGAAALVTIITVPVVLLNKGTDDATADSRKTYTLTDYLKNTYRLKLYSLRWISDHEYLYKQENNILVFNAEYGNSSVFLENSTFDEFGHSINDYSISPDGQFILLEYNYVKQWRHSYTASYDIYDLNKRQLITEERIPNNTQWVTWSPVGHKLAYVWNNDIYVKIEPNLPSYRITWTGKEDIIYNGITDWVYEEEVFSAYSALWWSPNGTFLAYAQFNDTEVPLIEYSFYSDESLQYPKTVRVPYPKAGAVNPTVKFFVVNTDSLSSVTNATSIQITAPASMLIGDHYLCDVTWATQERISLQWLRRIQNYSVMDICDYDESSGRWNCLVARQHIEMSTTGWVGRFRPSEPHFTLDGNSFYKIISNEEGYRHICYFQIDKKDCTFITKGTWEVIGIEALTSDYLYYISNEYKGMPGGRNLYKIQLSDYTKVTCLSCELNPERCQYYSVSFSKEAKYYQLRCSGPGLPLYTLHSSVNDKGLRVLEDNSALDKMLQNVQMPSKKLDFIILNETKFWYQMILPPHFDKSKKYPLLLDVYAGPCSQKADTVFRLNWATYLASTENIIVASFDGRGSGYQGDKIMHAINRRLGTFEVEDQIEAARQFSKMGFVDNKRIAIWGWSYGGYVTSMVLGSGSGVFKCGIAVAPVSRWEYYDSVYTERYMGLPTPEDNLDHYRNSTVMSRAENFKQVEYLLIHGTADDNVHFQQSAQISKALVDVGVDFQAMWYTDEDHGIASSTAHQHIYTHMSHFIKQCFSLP
assay_comment: Stability against DPP IV enzyme
Assay type: in vitro ADME
condition_summary: 2 μM, 37° C., 24 h
Experimental: Different peptidomimetics (final concentration 2 μM) were incubated with either DPP IV (1:25 mU) or pooled human plasma (7.5 μL) or simulated gastric fluid (pH 1.5; composition HCl, NaCl and Pepsin) or simulated intestinal fluid (pH 7.5) or human liver microsomes, for 0, 2, 4, 6, 12 and 24 h (37° C.; 50 mM triethanolamine-HCl buffer; pH 7.8). […] The absorbance was monitored at 206 nm using UV detector and peaks were collected manually prior to ESI-MS analysis. […]
Where a SMILES comes first, the peptide text is derived from it. [ ]: non-standard residue; d: D form. ξ: configuration not given here. ξαMeBip(2'-Et,4'-OMe) = CCc1cc(OC)ccc1-c1ccc(CC(C)(N)C(=O)O)cc1; ξBip(2'-Et-4'-OMe) = CCc1cc(OC)ccc1-c1ccc(CC(N)C(=O)O)cc1; ξαMe(hhPhe) = CC(N)(CCCc1ccccc1)C(=O)O; ξhhPhe = NC(CCCc1ccccc1)C(=O)O; ξαMeD = CC(N)(CC(=O)O)C(=O)O; ξαMeP = CC1(C(=O)O)CCCN1; ξαMeS = CC(N)(CO)C(=O)O
Each entry below carries its recorded % degradation in 24 h when incubated with DPP-IV enzyme.
Entry rule: numbers only, all in %.

Past entries and their recorded results:
compound	test_result
CCc1cc(OC)ccc1-c1ccc(CC(NC(=O)C(C)(CC(=O)O)NC(=O)C(C)(CO)NC(=O)[C@@H](NC(=O)[C@H](Cc2ccccc2)NC(=O)[C@@H](NC(=O)CNC(=O)[C@H](CCC(=O)O)NC(=O)[C@H](C)NC(=O)[C@H](Cc2c[nH]cn2)NC(=O)[C@@H](N)C(C)C)[C@@H](C)O)[C@@H](C)O)C(=O)NC(C)(CCCc2ccccc2)C(N)=O)cc1 (stereo partly drawn) [compound 112] (H-VHAEGTFT[ξαMeS][ξαMeD][ξBip(2'-Et-4'-OMe)][ξαMe(hhPhe)]-NH2)	70
CCc1cc(OC)ccc1-c1ccc(CC(C)(NC(=O)C(C)(CC(=O)O)NC(=O)[C@H](CO)NC(=O)[C@@H](NC(=O)[C@H](Cc2ccccc2)NC(=O)[C@@H](NC(=O)CNC(=O)[C@H](CCC(=O)O)NC(=O)[C@H](C)NC(=O)[C@H](Cc2c[nH]cn2)NC(=O)[C@@H](N)C(C)C)[C@@H](C)O)[C@@H](C)O)C(=O)NC(CCCc2ccccc2)C(N)=O)cc1 (stereo partly drawn) [compound 62] (H-VHAEGTFTS[ξαMeD][ξαMeBip(2'-Et,4'-OMe)][ξhhPhe]-NH2)	00

Now take the following compound into account.
Read the entry CCc1cc(OC)ccc1-c1ccc(CC(C)(NC(=O)C(C)(CC(=O)O)NC(=O)[C@H](CO)NC(=O)[C@@H](NC(=O)[C@H](Cc2ccccc2)NC(=O)[C@@H](NC(=O)CNC(=O)[C@H](CCC(=O)O)NC(=O)C2(C)CCCN2C(=O)[C@H](Cc2c[nH]cn2)NC(=O)[C@@H](N)C(C)C)[C@@H](C)O)[C@@H](C)O)C(=O)NC(C)(CCCc2ccccc2)C(N)=O)cc1 (stereo partly drawn) [compound 188] (H-VH[ξαMeP]EGTFTS[ξαMeD][ξαMeBip(2'-Et,4'-OMe)][ξαMe(hhPhe)]-NH2) and write its reported % degradation in 24 h when incubated with DPP-IV enzyme.
00
